Values were extracted from patent USRE38460E1.

For each entry below, report its LD50 value.
assay: Critical toxicity on mice (Bliss method); type: in vivo; conditions: mouse, in vivo, po, mice, p.o., Bliss method; mortality within 7 days; second of two columns headed LD50; read-out: LD50 (second column) (95% confidence limit)
One number for each entry, in mg/kg.

[[record]]
compound = "CC=C1C2C=C(C)CC1(N=Cc1ccc(OC)c(O)c1)c1ccc(=O)[nH]c1C2 (centres unmarked) [derivative No. 18]"
readoutnumber = 14.4


Next item in the queue.
// returns reported LD50 for input CC=C1C2C=C(C)CC1(N=Cc1c(O)cc(OC)cc1OC)c1ccc(=O)[nH]c1C2 (centres unmarked) [derivative No. 19] 14.1

###

biological target: acetylcholinesterase (AChE) (Rattus norvegicus, UniProt P37136); construct: from tissue; host or cells: homogenate of rat cortex; test: biochemical; type: biochemical; settings: Table 2; AChE taken from homogenate of rat's cortex
For each of the compounds below, state its pIC50.
Numbers only, as −log10 of the molar value.

Use the examples below as a reference point.
[[record]]
compound = "CC=C1C2C=C(C)CC1(N=Cc1ccc(OC)c(OC)c1O)c1ccc(=O)[nH]c1C2 (centres unmarked)"
readoutnumber = 6.90

[[record]]
compound = "CC=C1C2C=C(C)CC1(N=Cc1cccc(O)c1O)c1ccc(=O)[nH]c1C2 (centres unmarked)"
readoutnumber = 7.00

[[record]]
compound = "CC=C1C2C=C(C)CC1(N=Cc1c(O)cc(OC)cc1OC)c1ccc(=O)[nH]c1C2 (centres unmarked)"
readoutnumber = 6.84

[[record]]
compound = "CC=C1C2C=C(C)CC1(N=Cc1ccc(O)c(O)c1O)c1ccc(=O)[nH]c1C2 (centres unmarked)"
readoutnumber = 6.80

[[record]]
compound = "CC=C1C2C=C(C)CC1(N=Cc1ccc(OC)c(O)c1)c1ccc(=O)[nH]c1C2 (centres unmarked)"
readoutnumber = 6.82

[[record]]
compound = "CC=C1C2C=C(C)CC1(N=Cc1ccc(O)cc1O)c1ccc(=O)[nH]c1C2 (centres unmarked)"
readoutnumber = 6.60

[[record]]
compound = "CC=C1C2C=C(C)CC1(N=Cc1ccccc1O)c1ccc(=O)[nH]c1C2 (centres unmarked)"
readoutnumber = 6.75


# value lookup — system acetylcholinesterase (AChE) (Rattus norvegicus, UniProt P37136), readout pIC50, item CC=C1C2C=C(C)CC1(N=Cc1cc(OC)c(OC)c(OC)c1)c1ccc(=O)[nH]c1C2 (centres unmarked) 6.85

###

Molecular target: acetylcholinesterase (AChE) (Rattus norvegicus, UniProt P37136)
Construct: from tissue; host or cells: homogenate of rat cortex
Sequence (P37136 32-614): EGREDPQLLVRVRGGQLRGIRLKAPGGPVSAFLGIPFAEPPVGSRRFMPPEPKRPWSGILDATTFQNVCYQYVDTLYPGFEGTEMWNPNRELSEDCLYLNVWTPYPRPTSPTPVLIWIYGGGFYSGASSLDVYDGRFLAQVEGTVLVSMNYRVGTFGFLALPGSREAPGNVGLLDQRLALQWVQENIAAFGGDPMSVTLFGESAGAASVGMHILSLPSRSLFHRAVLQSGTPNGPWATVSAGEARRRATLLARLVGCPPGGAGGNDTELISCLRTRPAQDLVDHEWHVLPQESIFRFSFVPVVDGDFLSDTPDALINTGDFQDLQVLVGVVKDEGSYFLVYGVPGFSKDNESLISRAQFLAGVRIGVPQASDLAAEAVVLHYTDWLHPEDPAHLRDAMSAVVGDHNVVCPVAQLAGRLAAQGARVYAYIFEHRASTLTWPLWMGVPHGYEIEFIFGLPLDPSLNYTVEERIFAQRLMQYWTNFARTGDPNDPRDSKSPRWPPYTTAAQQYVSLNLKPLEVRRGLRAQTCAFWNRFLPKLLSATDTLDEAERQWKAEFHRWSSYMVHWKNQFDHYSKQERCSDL
Test: biochemical
Format: biochemical
Details: Table 2; cortex AChE, serum BuChE
observable: IC50 ratio BuChE/AChE
One number for each entry.

Here's what some known entries look like.
[[record]]
molecule = "CC=C1C2C=C(C)CC1(NC(=O)c1ccccc1C(=O)O)c1ccc(=O)[nH]c1C2 (stereo not shown) [derivative No. 15]"
observable = "IC50 ratio BuChE/AChE"
readoutnumber = 795.6

[[record]]
molecule = "CC=C1C2C=C(C)CC1(NC(=O)CCC(=O)O)c1ccc(=O)[nH]c1C2 (stereo not shown) [derivative No. 1]"
observable = "IC50 ratio BuChE/AChE"
readoutnumber = 1094.1

[[record]]
molecule = "CC=C1C2C=C(C)CC1(N=Cc1ccc(O)c(O)c1O)c1ccc(=O)[nH]c1C2 (stereo not shown) [derivative No. 25]"
observable = "IC50 ratio BuChE/AChE"
readoutnumber = 1584.9

[[record]]
molecule = "CC=C1C2C=C(C)CC1(N=Cc1ccccc1O)c1ccc(=O)[nH]c1C2 (stereo not shown) [derivative No. 20]"
observable = "IC50 ratio BuChE/AChE"
readoutnumber = 708.1

[[record]]
molecule = "CC=C1C2C=C(C)CC1(N=Cc1c(O)cc(OC)cc1OC)c1ccc(=O)[nH]c1C2 (stereo not shown) [derivative No. 19]"
observable = "IC50 ratio BuChE/AChE"
readoutnumber = 724.6

[[record]]
molecule = "CC=C1C2C=C(C)CC1(N=Cc1ccc(OC)c(O)c1)c1ccc(=O)[nH]c1C2 (stereo not shown) [derivative No. 18]"
observable = "IC50 ratio BuChE/AChE"
readoutnumber = 708.2

[[record]]
molecule = "CC=C1C2C=C(C)CC1(N=Cc1ccc(O)cc1O)c1ccc(=O)[nH]c1C2 (stereo not shown) [derivative No. 23]"
observable = "IC50 ratio BuChE/AChE"
readoutnumber = 794.2

[[record]]
molecule = "CC=C1C2C=C(C)CC1(N=CC=Cc1ccccc1)c1ccc(=O)[nH]c1C2 (stereo not shown) [derivative No. 27]"
observable = "IC50 ratio BuChE/AChE"
readoutnumber = 794.3

[[record]]
molecule = "CC=C1C2C=C(C)CC1(NC(=O)c1ccccn1)c1ccc(=O)[nH]c1C2 (stereo not shown) [derivative No. 12]"
observable = "IC50 ratio BuChE/AChE"
readoutnumber = 1995.2


Proceed to the following item.
State the recorded IC50 ratio BuChE/AChE for this entry: CC=C1C2C=C(C)CC1(N=Cc1ccc(OC)c(OC)c1O)c1ccc(=O)[nH]c1C2 (stereo not shown) [derivative No. 22] 1000.0
